Attribution: PubChem BioAssay (NCI)

- System: HT29 colon
- Test Name: NCI-60 one-dose screen, 48 h
- Measurement Conditions: 10 µM unless noted
The panel holds about 83,000 compounds, 20% with a hit somewhere; the sample as a whole holds those more often. The source made the active and inactive calls. The calls were made as follows: active = growth percent below 10; inactive = the rest.
Labels: label 1 for active, label 0 for inactive

* O=C(O)c1ccc[n+](CC(=O)N2CCN(c3cc4c(cc3F)c(=O)c(C(=O)O)cn4C3CC3)CC2)c1 | label 0
* Clc1nc(Cl)c2ncn(CC3(Cn4cnc5c(Cl)nc(Cl)nc54)COC3)c2n1 | label 1
* CCOC(=O)C1=C(C)NC(C)=C(C(=O)OCC)C1c1cc(Br)c(O)c(OC)c1 | label 0
* FC(F)(F)Oc1cccc(-c2cc(NCCCCCCNc3cc(-c4cccc(OC(F)(F)F)c4)nc4ccc(N5CCCC5)cc34)c3cc(N4CCCC4)ccc3n2)c1 | label 1
* C(=N\Nc1ncc(-c2cc3cc4c(cc3o2)OCO4)s1)/c1c[nH]c2ccccc12 | label 0
* N#Cc1c(Nc2ccccc2)nn2cc(-c3nc4ccccc4s3)c(N)nc12 | label 0
* C=C1C(=O)O[C@H]2[C@H]1CC/C(CNC(=O)/C=C/c1ccc(Br)cc1)=C\CC[C@@]1(C)O[C@@H]21 | label 1
* COc1ccc2nc(N=Nc3c(O)ccc4ccccc34)sc2c1 | label 0
* NC(=O)CN1CCN(c2ccccc2Cl)CC1 | label 0
* Cc1c([N+](=O)[O-])cc(C(C)(C)C)cc1[N+](=O)[O-] | label 0
* COc1cccc(-c2nc3occn3c2-c2ccnc(NCCCNS(=O)(=O)c3cccc(F)c3)n2)c1 | label 0
* Cc1cc2cc3cc(C)c(N)cc3[n+](C)c2cc1N | label 1
* CC(O)(CO)c1ccccc1 (stereo unspecified) | label 0
* c1ccc(C2CC(c3cccc(Nc4ccncc4)c3)=NN2c2ccccc2)cc1 (stereo unspecified) | label 1
* Cc1ccc(C2C3CC4CCCCC4N3[C@@]3(C(=O)Nc4cc(Cl)ccc43)C2C(=O)c2nc3ccccc3[nH]2)cc1 (stereo partly specified) | label 0
* C=C1C(=O)O[C@H]2[C@H]1CC/C(CNC(=O)/C=C/c1ccccc1F)=C\CC[C@@]1(C)O[C@@H]21 | label 1
* COc1ccc(C(=O)c2cc3c(N)c(C(=O)Nc4cccc(OC)c4)sc3nc2C)cc1 | label 1
* COc1ccc(Nc2nc(N)nc3c2CCc2occc2-3)cc1 | label 0
* O=C(NNc1nc(Cl)nc(N2CCN(C(c3ccccc3)c3ccccc3)CC2)n1)c1ccccc1 | label 1
* COc1cccc2cc(-c3cc4ccccc4[nH]3)/c(=N/C(=S)Nc3ccc(C)cc3)oc12 | label 0
* CC(C)CN(C(=O)c1ccc(Cl)cc1)c1c(N)n(CC(C)C)c(=O)[nH]c1=O | label 0
* COc1cc2oc(-c3cccc(C(=O)Nc4ccc(Cl)cc4)c3)cc(=O)c2c(OC)c1OC | label 1
* O=C1C(=O)c2c(nc3ncccn23)-c2ccccc21 | label 1
* COc1cc(-c2nc3occn3c2-c2ccnc(NCCNS(=O)(=O)c3ccc(Cl)cc3)n2)ccc1F | label 0
* C#CCn1cc(C=C2C(=O)NC(=S)NC2=O)c2cc(Cl)ccc21 | label 0
* O=C1/C(=C\c2cn(Cc3ccccc3)c3ccc(Br)cc23)c2ccccc2N1c1c(Cl)cccc1Cl | label 0

---

- Tested on: SR leukemia
- Test Name: NCI-60 one-dose screen, 48 h (100 = growth as untreated, 0 = no growth, -100 = all killed)
- Measurement Conditions: 10 µM unless noted
Compounds without any hit were thinned out: in the full panel of roughly 83,000, 20% have a hit.
Result Type: growth (%)

- O=C(Nc1nc2ccc(S(=O)(=O)Nc3ccc(C4(C(F)(F)F)CC4)cc3)cc2[nH]1)c1cnccn1: 20
- CN(C)CCCn1c2c(c3ccc(-c4ccn[nH]4)cc3c1=O)C(=O)c1ccccc1-2: -1.12
- c1ccc2c(-c3c4ccsc4cc4[nH]c5ccccc5c34)c[nH]c2c1: 25.7
- CC1(C)CCCN1CCCN1c2ccccc2Sc2ccc(Cl)cc21: 35.7
- COc1ccc2c(c1)OC13Oc4cc(OC)ccc4C=C1CCCC3=C2: 4.94
- Nc1c(C(=O)Nc2ccc(Cl)cc2)cc(-c2nc3ccccc3s2)c(=O)n1NS(=O)(=O)c1ccc(Cl)cc1: 95.2
- CC(N)C(=O)NNc1n[nH]c(=S)n1N (centres undefined): 103
- Cc1cn(-c2cc(C(=O)Nc3cccc(C#Cc4cccc5[nH]nc(N)c45)c3)cc(C(F)(F)F)c2)cn1: 49.9
- CC(C)(C)CC(C)(C)Nc1c(-c2ccc3c(c2)OCO3)nc2cnccn12: 73.1
- CC1=CC[C@@H]2CC[C@]3(C)[C@H](CC[C@@H]4[C@@]5(C)CCCNC(C)(C)[C@@H]5CC[C@]43C)[C@H]2[C@@H]1C: 5.05
- Cn1c(COC(=O)NCCN2CCOCC2)nc2c(N3CCOCC3)nc(-c3ccccc3)nc21: -5.83
- C=CCn1c(SCC(=O)Nc2ccc(C(=O)/C=C/c3cc(OC)c(OC)c(OC)c3)cc2)nnc1-c1cc(-c2ccc(S(C)(=O)=O)cc2)nc2ccccc12: 13.9
- O=C1CCCCCCCCC(O)C(O)CCCC(c2cccs2)O1 (centres undefined): -12.3
- CC(C)Cc1ccc(C(C)C(=O)NCc2c[nH]c3ccc(Cl)cc23)cc1 (centres undefined): 80.5

---

This listing pairs molecules with measured growth.
- Test system: MDA-MB-435 melanoma
- Test Name: NCI-60 one-dose screen, 48 h (100 = growth as untreated, 0 = no growth, -100 = all killed)
- Measurement Conditions: 10 µM unless noted
- Experimental: Growth inhibition of the MDA-MB-435 human Melanoma tumor cell line is measured as a screen for anti-cancer activity. Cells are grown in 96 well plates and exposed to the test compound for 48 hours. Compounds are tested at a single concentration, which is 10^-5 M for most compounds. The reported endpoint is percent growth (GI% or GIPRCNT), where numbers from 0 - 100% represent growth inhibition, and numbers from -100% - 0 represent cell death. […]
The panel holds about 83,000 compounds, 20% with a hit somewhere; the sample as a whole holds those more often.
Result Type: growth (%)

- COc1cc2nc(-c3ccc(C(F)(F)F)cc3)cc(OCCN3CCC(O)CC3)c2cc1OC: 94.4
- COc1ccc(C(=O)c2cc(C)c(OC)c(C)c2)c(OC)c1N(C(=O)C(Cl)Cl)C(=O)C(Cl)Cl: -37.5
- O=C1/C(=C/c2ccc(O)cc2)COc2ccc(-c3ccccc3)cc21: 60.7
- Fc1ccc(-n2cc(COc3ncnc4sc5c(c34)CCCC5)nn2)cc1Cl: 99
- O=C(Nc1ccc2ncnc(Nc3ccc(Oc4cccc(F)c4)c(Cl)c3)c2c1)c1ccc(CNCCO)cc1: -86.3
- NC(=O)CN1CCN(c2ccccc2Cl)CC1: 103
- CN(C)CCCn1c2c(c3ccc(-c4ccn[nH]4)cc3c1=O)C(=O)c1ccccc1-2: 78.4
- O=S(=O)(NCCCNc1nccc(-c2c(-c3ccc(F)c(O)c3)nc3sccn23)n1)c1ccc(F)cc1: -11.7
- Cc1ccc(C2CC(c3cccc(Nc4ccncc4)c3)=NN2c2cc(Cl)cc(Cl)c2)cc1 (stereo unspecified): -63.2
- C=C1C(=O)O[C@H]2[C@H]1CC/C(COC(=O)CCCc1c[nH]c3ccccc13)=C\CC[C@@]1(C)O[C@@H]21: 60.3
- COc1ccc(NC(=O)c2sc3nc(C)c(C(O)c4ccc(OC)cc4)cc3c2N)cc1 (stereo unspecified): -2.11
- COc1cccc2cc(-c3cc4ccccc4[nH]3)/c(=N/C(=S)Nc3ccc(C)cc3)oc12: 85.1
- COc1ccc(C2CC(n3nnnc3-c3ccccc3)=NN2)cc1 (stereo unspecified): 50.1
- C=C(C)[C@@H]1CC[C@]2(C(=O)N3CCN(C)CC3)CC[C@]3(C)[C@H](CC[C@@H]4[C@@]5(C)CCC(=O)C(C)(C)[C@@H]5CC[C@]43C)[C@@H]12: 92
- O=C(Nc1ccc(Nc2ncccn2)cc1)NC1C=c2ccccc2=CC1 (stereo unspecified): 113
- COc1cc(C(=O)/C=C/c2c(C)n([O-])c3ccc(Cl)cc3[n+]2=O)cc(OC)c1OC: 49.4

---

- Test system: A549/ATCC NSCLC
- Test Name: NCI-60 one-dose screen, 48 h
- Measurement Conditions: 10 µM unless noted
Compounds without any hit were thinned out: in the full panel of roughly 83,000, 20% have a hit. The source made the active and inactive calls. How the source made its calls: active means growth percent below 10; inactive means the rest.
Outcome codes: true for active, false for inactive

- CC(C)Cc1ccc(C(C)C(=O)NCc2c[nH]c3ccc(Cl)cc23)cc1 (centres undefined): false
- O=C(Nc1ccc2cc3ccc(NC(=O)N4CCCCCC4)cc3nc2c1)N1CCCCCC1: true
- CCCCCCCCCCCCCCCCCCOc1ccccc1N: false
- c1ccc(-c2nn(-c3ccccc3)[n+](-c3ccccc3-c3ccccc3)n2)cc1: false
